# key: entry, value: PBM E-score
- system: Stb5 (UniProt P38699)
- Sequence: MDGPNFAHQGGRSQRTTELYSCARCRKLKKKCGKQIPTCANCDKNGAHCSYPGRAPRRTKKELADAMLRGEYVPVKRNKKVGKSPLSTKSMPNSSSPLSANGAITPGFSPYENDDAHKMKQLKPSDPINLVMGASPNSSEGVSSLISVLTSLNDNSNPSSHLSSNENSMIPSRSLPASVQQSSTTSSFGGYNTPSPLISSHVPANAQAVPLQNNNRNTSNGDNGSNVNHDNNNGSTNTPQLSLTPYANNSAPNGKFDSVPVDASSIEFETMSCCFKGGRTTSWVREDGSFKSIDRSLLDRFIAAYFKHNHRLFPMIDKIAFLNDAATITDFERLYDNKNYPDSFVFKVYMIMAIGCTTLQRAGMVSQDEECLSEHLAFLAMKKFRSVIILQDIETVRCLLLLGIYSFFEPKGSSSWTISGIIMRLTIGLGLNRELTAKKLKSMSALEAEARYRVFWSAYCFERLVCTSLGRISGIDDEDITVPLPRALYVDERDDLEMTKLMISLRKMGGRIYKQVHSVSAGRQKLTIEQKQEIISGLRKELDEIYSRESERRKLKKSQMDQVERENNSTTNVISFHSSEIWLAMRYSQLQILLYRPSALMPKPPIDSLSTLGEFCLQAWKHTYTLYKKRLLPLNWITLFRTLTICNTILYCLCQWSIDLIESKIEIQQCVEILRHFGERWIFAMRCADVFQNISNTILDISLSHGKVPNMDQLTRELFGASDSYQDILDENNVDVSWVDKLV
- assay_procedure: PBM E-score (8-mer binding enrichment) (E-score (-0.5 to 0.5)); higher = stronger / more preferred TF binding
- experimental_setup: protein concentration: 200 nM; construct: GST-full length
The full ranking holds about 33,000 sequences; the median of “E-score (-0.5 to 0.5)” is about -0.054, and the highest 2% start at about 0.35. The list comes from a sample in which the highest values are over-represented; it also holds close analogues and randomly drawn sequences.

residue_sequence: AGCGGGCC
PBM E-score: 0.23

Query sequence follows.
Kindly note the recorded PBM E-score for `ATAGAATA` , which is -0.0414
